test: reversal of MRP1-mediated doxorubicin resistance, pilot screen, H69AR cells, doxorubicin co-treatment (AID 601); details: H69AR cells + 2 uM doxorubicin, CellTiter-Glo, 72 h; at 10 µM; stronger effect = higher value
# Lookup of reported differential viability (reversal) keyed by entry
Please respond with the number in % and leave the unit unwritten.

Worked cases, differential viability (reversal) given:
CCCCn1cnc2c(cnn2-c2ccc(Cl)cc2)c1=O : -1.77
OCCn1c(-c2ccc3c(c2)OCO3)csc1=Nc1ccccc1 : -2.46
Cc1cc(O)c(C(C)C)cc1N=C1CSC(=O)N1 : 1.7

Incoming: Quick one: differential viability (reversal) for COc1ccccc1Nc1ncnc2c1cnn2-c1cccc(C)c1 ?
Outgoing: 10.9

Incoming: Quick one: differential viability (reversal) for CCOC(=O)c1c(C)[nH]c(C)c1C(=O)COc1ccc(NC(=O)c2ccco2)cc1 ?
Outgoing: -6.89

Incoming: Quick one: differential viability (reversal) for CC12CN3CC(C)(CN(C1)C3c1cc(Br)ccc1O)C2=O (stereo not drawn) ?
Outgoing: 1.15

Incoming: Quick one: differential viability (reversal) for CCOC(=O)N1CCC2(O)CCCCC2C1c1ccc(F)cc1 (stereo not drawn) ?
Outgoing: 8.28

Incoming: Quick one: differential viability (reversal) for CCOC(=O)Cn1c(=N)n(CCOc2cccc(C)c2)c2ccccc21 ?
Outgoing: 1

Incoming: Quick one: differential viability (reversal) for Cc1nnc(SCC(=O)NCCN2C(=O)CSC2=O)s1 ?
Outgoing: -1.88

Incoming: Quick one: differential viability (reversal) for COc1ccccc1C(=O)Nc1ccc(S(=O)(=O)N2CCOCC2)cc1 ?
Outgoing: -0.52

Incoming: Quick one: differential viability (reversal) for O=C1CC(N2CCN(c3ccc(Cl)c(Cl)c3)CC2)C(=O)N1 (stereo not drawn) ?
Outgoing: 18.3

Incoming: Quick one: differential viability (reversal) for CCc1nnc(NC(=O)CSc2nnc(CSc3nc(C)cc(C)n3)n2CC)s1 ?
Outgoing: 1.79

Incoming: Quick one: differential viability (reversal) for CCOc1ccc(S(=O)(=O)Nc2cccc(Cl)c2)cc1 ?
Outgoing: -41.9

Incoming: Quick one: differential viability (reversal) for COc1ccc2c(=O)c3c(=O)n(Cc4ccco4)c(C(C)C)nc3oc2c1 ?
Outgoing: 9.28

Incoming: Quick one: differential viability (reversal) for Cc1nc(CNS(=O)(=O)c2ccc3c(c2)OCCO3)cs1 ?
Outgoing: -0.265

Incoming: Quick one: differential viability (reversal) for CCN1C(=O)OC2(CCCCC2)C1(C)O (stereo not drawn) ?
Outgoing: 11.4

Incoming: Quick one: differential viability (reversal) for CCC(C)NC(=O)c1ccccc1NC(=O)C(C)N(c1ccccc1)S(C)(=O)=O (stereo not drawn) ?
Outgoing: -7.6

Incoming: Quick one: differential viability (reversal) for Cn1c(SCc2nc3ccccc3c(=O)[nH]2)nnc1-c1ccco1 ?
Outgoing: 5.6

Incoming: Quick one: differential viability (reversal) for Cc1cccc(C(OC(=O)c2ccco2)C(=O)NCc2ccccc2)n1 (stereo not drawn) ?
Outgoing: 7.79

Incoming: Quick one: differential viability (reversal) for COc1ccc(C2CC(c3ccccc3)Nc3nc(NC(=O)c4cccs4)nn32)cc1 (stereo not drawn) ?
Outgoing: 4.87

Incoming: Quick one: differential viability (reversal) for CCOc1cccc(C(=O)Nc2cccc(-c3nc4ncccc4o3)c2C)c1 ?
Outgoing: -12.9

Incoming: Quick one: differential viability (reversal) for CC1(C)CC(CCNC(=O)c2ccco2)CC(C)(C)N1 ?
Outgoing: 2.95

Incoming: Quick one: differential viability (reversal) for CCn1ncc(Cl)c1C(=O)Nc1ccncc1 ?
Outgoing: 14.8

Incoming: Quick one: differential viability (reversal) for Cc1cccc2cc(COC(=O)C(C)(C)C)c(=O)[nH]c12 ?
Outgoing: 2.58

Incoming: Quick one: differential viability (reversal) for COc1cccc(C(=O)N2CCCC(c3nc(-c4cccs4)no3)C2)c1 (stereo not drawn) ?
Outgoing: 2.9

Incoming: Quick one: differential viability (reversal) for Nn1c(SCC(=O)Nc2ccc(F)cc2)nnc1-c1cccnc1 ?
Outgoing: 7.72

Incoming: Quick one: differential viability (reversal) for O=C1OCc2cc(NC(=O)C3CCCO3)ccc21 (stereo not drawn) ?
Outgoing: -0.78

All figures here come from PubChem BioAssay.
